Reference for the values: PubChem BioAssay AID1851

biological target: Cytochrome P450 2C9 (Homo sapiens); assay: Cytochrome panel assay with activity outcomes; details: recombinant CYP, pro-luciferin dealkylation, luminescence, p450-cyp2c9; series mostly up to 57.1 µM
Out of some 16,000 compounds screened, about 4,000 (25%) were called active. About 26% were inconclusive and are not listed. Calls come from the whole dose curve; as a rule, active = well fitted curve in the direction sought with a large enough effect; inconclusive = small, poorly fitted or top-dose-only effect, or effect the other way; inactive = no such curve, though single readings can be large or run the other way. Only a sample is shown.
Assign a class; possible classes are class 1 for active, class 0 for inactive

Sample answers from the record:
molecule | cat
Cc1ccc(NC(=O)CCN2C(=O)c3ccncc3C2=O)cc1 | class 1
Cc1cccc(-n2nc([N+](=O)[O-])c(=NCc3cccnc3)n2O)c1 | class 1
COc1cccc(/C(O)=C2/C(=O)C(=O)N(c3cc(C)on3)C2c2cccs2)c1 (stereo not drawn) | class 1
O=C(NCc1cccnc1)/C(=C/c1ccc(-c2cccc(Cl)c2)o1)S(=O)(=O)c1ccccc1 | class 1

input: Can you look up the reported call for Cc1cnc(C(=O)OCC(=O)NC(C)C)cn1 for me?
output: class 0

input: Please indicate how the test categorized CCOc1nc(N=C(N)N)nc2c(C)cccc12 .
output: class 0

input: Assay result, entry CCCC[C@@H]1C[C@H]1C(NC(=O)c1ccco1)c1ccc(-c2ccccc2)cc1 (stereo partly drawn) — outcome?
output: class 1

input: For this molecule, state the assay outcome: CC(C)(C)c1ccc(C(=O)Nc2ccc(NC(=O)c3ccco3)cc2)cc1
output: class 1

---

molecular target: Cytochrome P450 2C9 (Homo sapiens) (UniProt P11712); assay: Cytochrome panel assay with activity outcomes; settings: recombinant CYP, pro-luciferin dealkylation, luminescence, p450-cyp2c9; series mostly up to 57.1 µM
Sequence (P11712 whole entry, looked up): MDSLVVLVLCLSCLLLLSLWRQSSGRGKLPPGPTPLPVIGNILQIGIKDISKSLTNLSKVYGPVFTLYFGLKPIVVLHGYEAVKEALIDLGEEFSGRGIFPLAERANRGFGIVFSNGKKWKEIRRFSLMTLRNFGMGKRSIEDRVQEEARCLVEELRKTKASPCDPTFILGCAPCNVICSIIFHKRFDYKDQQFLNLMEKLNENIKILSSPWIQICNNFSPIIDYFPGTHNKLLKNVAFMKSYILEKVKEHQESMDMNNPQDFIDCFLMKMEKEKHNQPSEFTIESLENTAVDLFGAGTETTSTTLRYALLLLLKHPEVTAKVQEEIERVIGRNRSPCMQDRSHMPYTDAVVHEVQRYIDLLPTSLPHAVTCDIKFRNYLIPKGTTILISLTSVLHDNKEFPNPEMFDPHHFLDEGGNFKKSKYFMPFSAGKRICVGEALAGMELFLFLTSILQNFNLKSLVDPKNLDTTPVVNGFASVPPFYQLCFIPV
Screen size: about 16,000 compounds; about 4,000 (25%) were called active. Inconclusive results (about 26%) are left out. These entries were drawn from the full list.
resultType: AC50

Illustrative cases are given below, each with its answer.
compound | AC50
Cc1cccc(OCC(=O)N2CCC(N3CCCCCC3)CC2)c1 | inactive
N#CC(c1ccc(Cl)cc1)(c1ncc(C(F)(F)F)cc1Cl)N1CCOCC1 (stereo unspecified) | 10 µM (active)
N#CC(c1ccccn1)(c1ncc(C(F)(F)F)cc1Cl)N1CCOCC1 (stereo unspecified) | inactive
CCOc1ccc(NC(=O)N2CCC(c3ccc(C)cc3)C2)cc1 (stereo unspecified) | inactive

The recorded AC50 with Cytochrome P450 2C9 (Homo sapiens) (UniProt P11712) for N#C/C(=C\c1ccc(Cl)cc1)c1nc2ncccc2[nH]1 was 7.08 µM (active)

Test item O=C(COc1ccc(Br)cc1)N1CCC(c2ccccc2)C1 (stereo unspecified) ; Cytochrome P450 2C9 (Homo sapiens) (UniProt P11712); reported AC50 was 14.1 µM (active)

---

target: Cytochrome P450 2C9 (Homo sapiens); test: Cytochrome panel assay with activity outcomes; settings: recombinant CYP, pro-luciferin dealkylation, luminescence, p450-cyp2c9; series mostly up to 57.1 µM
Out of some 16,000 compounds screened, about 4,000 (25%) were called active. Roughly 26% stayed inconclusive and do not appear here. Calls follow the shape of the dose curve; as a rule, active = well fitted curve in the direction sought with a large enough effect; inconclusive = small, poorly fitted or top-dose-only effect, or effect the other way; inactive = no such curve, though single readings can be large or run the other way. These entries were drawn from the full list.
Write down the outcome that applies. Available outcomes: 1 (active), -1 (inactive)

compound | cat
Cc1cc(C)n(-c2nnc(C)n2/N=C/c2ccccc2OCc2ccccc2Cl)n1 | 1
CN[C@@H]1[C@H](O[C@@H]2O[C@H](CO)[C@@H](N)[C@H](O)[C@@H]2O)O[C@H]2C[C@@H](N)[C@@H](O[C@H]3[C@@H](O)[C@H](O)[C@H](N)C[C@@H]3N)O[C@H]2[C@H]1O | -1
COc1ccc(/C=N/n2c(C)nnc2C)c(OC)c1 | -1

Read the next record carefully.
input: Each compound tested received a call. Report the one for Cc1cccc(C)c1OC1(c2ccccc2)OC(=O)c2ccccc21 (centres undefined) .
output: 1
